Tested on: 282377-053-R-J1-PDC complex spheroid viability;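 also: spheroids exposed to agents for seven days before readout; luminescence viability as percent of DMSO vehicle control wells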
Test: Anticancer human tumor 282377-053-R-J1-PDC patient-derived colon adenocarcinoma cell line growth inhibition [RAS]
Settings: second compound 1 µM; first compound 0.1 µM; hits give low values
ASSAY READOUT: viability, T/C (%)
Note: unit % is implicit; provide only the numeric part.

MOLECULE	viability, T/C / %
CC(=O)OC12COC1CC(O)C1(C)C(=O)C(O)C3=C(C)C(OC(=O)C(O)C(NC(=O)OC(C)(C)C)c4ccccc4)CC(O)(C(OC(=O)c4ccccc4)C21)C3(C)C (stereo not given) + C#Cc1c(F)ccc2cc(O)cc(-c3ncc4c(N5CC6CCC(C5)N6)nc(OCC56CCCN5CC(F)C6)nc4c3F)c12	25
CCN1CCN(Cc2ccc(Nc3ncc(F)c(-c4cc(F)c5nc(C)n(C(C)C)c5c4)n3)nc2)CC1 + C=CC(=O)N1CCN(c2nc(OCC3CCCN3C)nc3c(F)c(-c4nc(N)cc(C)c4C(F)(F)F)c(Cl)cc23)C(C)C1	113
Nc1ccn(C2OC(CO)C(O)C2(F)F)c(=O)n1 (stereo not given) + C=CC(=O)N1CCN(c2nc(OCC3CCCN3C)nc3c(F)c(-c4nc(N)cc(C)c4C(F)(F)F)c(Cl)cc23)C(C)C1	88
CC(C)n1nc(-c2ccc3oc(N)nc3c2)c2c(N)ncnc21 + C=CC(=O)N1CCN(c2nc(OCC3CCCN3C)nc3c(F)c(-c4nc(N)cc(C)c4C(F)(F)F)c(Cl)cc23)C(C)C1	61.9
CC1(O)CCCC1n1c(=O)c(C(F)F)cc2cnc(NC3CCN(S(C)(=O)=O)CC3)nc21 (stereo not given) + C=CC(=O)N1CCN(c2nc(OCC3CCCN3C)nc3c(F)c(-c4nc(N)cc(C)c4C(F)(F)F)c(Cl)cc23)C(C)C1	131
Nc1ccn(C2OC(CO)C(O)C2(F)F)c(=O)n1 (stereo not given) + C#Cc1c(F)ccc2cc(O)cc(-c3ncc4c(N5CC6CCC(C5)N6)nc(OCC56CCCN5CC(F)C6)nc4c3F)c12	69.6
CCC(CC)c1cc(NC2CCC(N)C2)n2nccc2n1 (stereo not given) + C=CC(=O)N1CCN(c2nc(OCC3CCCN3C)nc3c(F)c(-c4nc(N)cc(C)c4C(F)(F)F)c(Cl)cc23)C(C)C1	103
CC(C)n1nc(-c2ccc3oc(N)nc3c2)c2c(N)ncnc21 + C#Cc1c(F)ccc2cc(O)cc(-c3ncc4c(N5CC6CCC(C5)N6)nc(OCC56CCCN5CC(F)C6)nc4c3F)c12	46.8
CCN1CCN(Cc2ccc(Nc3ncc(F)c(-c4cc(F)c5nc(C)n(C(C)C)c5c4)n3)nc2)CC1 + C#Cc1c(F)ccc2cc(O)cc(-c3ncc4c(N5CC6CCC(C5)N6)nc(OCC56CCCN5CC(F)C6)nc4c3F)c12	103

Proceeding to the next molecule to report its viability, T/C.
Exercise: Requested field: viability, T/C. Item: O=C(c1ccc(F)c(F)c1Nc1ccc(I)cc1F)N1CC(O)([C@@H]2CCCCN2)C1 + C=CC(=O)N1CCN(c2nc(OCC3CCCN3C)nc3c(F)c(-c4nc(N)cc(C)c4C(F)(F)F)c(Cl)cc23)C(C)C1
Key: 55.7
